- Subject of test: wildtype HIV-1 protease (Human immunodeficiency virus type 1 group M subtype B, UniProt P04585)
Below, each of the compounds is paired with its reported IC50 value.
Phrase the answer as number then unit, nothing more needed.

// below: answered compounds
[[record]]
compound = "COC(=O)N[C@H](C(=O)Nc1ccccc1CC[C@@H]1CN[C@H](c2ncc(-c3ccccc3)[nH]2)CO1)C(c1ccccc1)c1ccccc1 [Example 45]"
data_value = "0.041 nM"

[[record]]
compound = "COC(=O)N[C@H](C(=O)Nc1ccccc1CC[C@@H]1CN[C@H](c2nnn[nH]2)CO1)C(c1ccccc1)c1ccccc1 [Example 38]"
data_value = "2 nM"

[[record]]
compound = "N[C@H](C(=O)Nc1cccc(F)c1OC[C@@H]1CN[C@H](c2nc3ccccc3[nH]2)CO1)C(c1ccccc1)c1ccccc1 [Example 94]"
data_value = "0.22 nM"

[[record]]
compound = "COC(=O)N[C@H](C(=O)Nc1ccccc1CC[C@@H]1CN[C@H](c2nc3c(Br)cc(C)cc3[nH]2)CO1)C(c1ccccc1)c1ccccc1 [Example 19]"
data_value = "0.573 nM"

[[record]]
compound = "COC(=O)N[C@H](C(=O)Nc1ccccc1CC[C@@H]1CN[C@H](c2nnnn2Cc2ccccc2)CO1)C(c1ccccc1)c1ccccc1 [Example 39]"
data_value = "653 nM"


Okay, next one:
get_value(item= N[C@@H](Cc1ccccc1Cl)C(=O)Nc1cccc(F)c1CC[C@@H]1CN[C@H](c2nc3ccccc3[nH]2)CO1 [Example 102] , readout=IC50) returns 17 nM
